Sourced from the kinase profiling compilation of Christmann-Franck et al. (2016)

- Target desc: MUSK (human) (UniProt O15146)
- Sequence (O15146 whole entry, looked up): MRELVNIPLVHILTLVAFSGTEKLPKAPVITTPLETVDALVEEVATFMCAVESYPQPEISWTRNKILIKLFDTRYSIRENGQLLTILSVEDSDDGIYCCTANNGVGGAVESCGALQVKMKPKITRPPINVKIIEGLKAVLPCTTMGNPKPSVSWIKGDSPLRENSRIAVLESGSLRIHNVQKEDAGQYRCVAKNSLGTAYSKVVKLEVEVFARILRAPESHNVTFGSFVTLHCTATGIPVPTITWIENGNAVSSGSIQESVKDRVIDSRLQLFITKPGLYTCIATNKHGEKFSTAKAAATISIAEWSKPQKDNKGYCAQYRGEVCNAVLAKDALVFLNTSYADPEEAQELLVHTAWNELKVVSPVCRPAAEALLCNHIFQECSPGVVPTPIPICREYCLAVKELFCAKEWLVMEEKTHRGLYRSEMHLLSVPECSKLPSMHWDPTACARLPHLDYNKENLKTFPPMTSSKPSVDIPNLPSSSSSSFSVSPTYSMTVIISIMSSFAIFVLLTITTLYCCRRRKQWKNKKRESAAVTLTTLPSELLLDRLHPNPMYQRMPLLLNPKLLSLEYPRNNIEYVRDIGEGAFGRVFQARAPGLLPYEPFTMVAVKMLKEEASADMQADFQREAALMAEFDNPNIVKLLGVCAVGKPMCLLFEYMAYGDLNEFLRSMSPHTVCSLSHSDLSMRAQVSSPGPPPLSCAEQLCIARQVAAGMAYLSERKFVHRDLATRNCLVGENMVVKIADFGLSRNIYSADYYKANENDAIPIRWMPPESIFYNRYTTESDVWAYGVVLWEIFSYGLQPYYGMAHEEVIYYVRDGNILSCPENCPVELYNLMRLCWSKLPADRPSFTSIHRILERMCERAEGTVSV
- Protocol: radiometric filter-binding kinase assay, Kinase HotSpot
- Condition summary: compound 0.5 µM; ATP 10 µM
Observable: residual activity (%)
One number for each entry, in %.

Some solved entries appear below for comparison.
Cc1ccc(S(=O)(=O)/C=C/C#N)cc1 : 107
O=S(=O)(c1cccc2cnccc12)N1CCCNCC1 : 97.6
COc1ccc2c(c[n+](C)c3c4cc5c(cc4ccc23)OCO5)c1OC : 98.2
CC#CC(=O)Nc1cc2c(Nc3ccc(F)c(Cl)c3)ncnc2cn1 : 79.6
CC[n+]1c(/C=C/N(C)c2ccccc2)n(-c2ccccc2)c2ccc(-c3nc4ccccc4s3)cc21 : 94.7

Parameter requested: residual activity. Apply to each item below.
1. CO[C@H]1CC2CC[C@@H](C)[C@@](O)(O2)C(=O)C(=O)N2CCCC[C@H]2C(=O)OC([C@H](C)C[C@@H]2CC[C@@H](O)[C@H](OC)C2)CC(=O)[C@H](C)/C=C(\C)[C@@H](O)[C@@H](OC)C(=O)[C@H](C)C[C@H](C)/C=C/C=C/C=C/1C (stereo partly drawn)
2. Cc1[nH]c(/C=C2\C(=O)Nc3ccc(S(=O)(=O)N(C)c4cccc(Cl)c4)cc32)c(C)c1C(=O)N1CCN(C)CC1
3. Nc1cccc(-c2cc3c(Oc4cccc(O)c4)ncnc3[nH]2)c1
4. N#CC(C#N)=C(N)/C(C#N)=C/c1ccc(O)cc1

Output line:
1. 87.7
2. 84.2
3. 62.8
4. 103

Parameter requested: residual activity. Apply to each item below.
1. CCCC(=O)Oc1ccc2[nH]c(C(=O)c3cc4ccccc4[nH]3)cc2c1
2. O=C1NC(=O)C(c2cn(CCCn3ccnc3)c3ccccc23)=C1Nc1ccccc1
3. COc1ccc(COc2ccc(Cc3cnc(N)nc3N)cc2OC)cc1
4. Nc1ccc2ncnc(NCCc3ccc(Oc4ccccc4)cc3)c2c1

Output line:
79.8
51.6
102
102

* * *

- Target desc: STK33 (human)
- Protocol: radiometric filter-binding kinase assay, Kinase HotSpot
- Condition summary: compound 0.5 µM; ATP 10 µM
Observable: residual activity (%)
One number for each entry, in %.

Some solved entries appear below for comparison.
CC(=O)c1ccc(N2CCOCC2)cc1O : 109
COC[C@H]1OC(=O)c2coc3c2[C@@]1(C)C1=C(C3=O)[C@@H]2CCC(=O)[C@@]2(C)C[C@H]1OC(C)=O : 88.2
O=C1NC(=O)/C(=C/c2ccc3c(c2)OC(F)(F)O3)S1 : 90.8
CNC(=O)c1cc(Oc2ccc(NC(=O)Nc3ccc(Cl)c(C(F)(F)F)c3)cc2)ccn1 : 83.9
N#CC(C#N)=C(N)/C(C#N)=C/c1ccc(O)cc1 : 93.2

Parameter requested: residual activity. Apply to each item below.
1. O=C1Nc2ccc(Cl)cc2/C1=C/c1cc(Cl)c(O)c(Cl)c1
2. Cc1[nH]c(/C=C2\C(=O)Nc3ccc(S(=O)(=O)N(C)c4cccc(Cl)c4)cc32)c(C)c1C(=O)N1CCN(C)CC1
3. CNc1cc2c(Nc3cccc(Br)c3)ncnc2cn1

Output line:
1. 85.1
2. 67.9
3. 95.2

* * *

Hi there, I'd appreciate the recorded residual activity for every entry that follows.
- Target desc: CSNK1G1 (human) (UniProt Q9HCP0)
- Sequence (Q9HCP0 whole entry, looked up): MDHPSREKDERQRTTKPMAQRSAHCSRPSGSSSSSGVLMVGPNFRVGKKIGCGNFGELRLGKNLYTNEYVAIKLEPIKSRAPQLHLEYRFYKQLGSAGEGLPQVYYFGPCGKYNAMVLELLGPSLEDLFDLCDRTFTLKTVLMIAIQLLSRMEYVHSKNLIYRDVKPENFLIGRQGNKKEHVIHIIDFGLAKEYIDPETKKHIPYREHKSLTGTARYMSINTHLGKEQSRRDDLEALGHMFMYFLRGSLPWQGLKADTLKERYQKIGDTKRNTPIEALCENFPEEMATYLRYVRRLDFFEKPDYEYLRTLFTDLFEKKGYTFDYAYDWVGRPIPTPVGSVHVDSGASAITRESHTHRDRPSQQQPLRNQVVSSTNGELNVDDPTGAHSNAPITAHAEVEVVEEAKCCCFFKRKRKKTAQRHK
- Protocol: radiometric filter-binding kinase assay, Kinase HotSpot
- Condition summary: compound 0.5 µM; ATP 10 µM
Numbers only, in %.

Some solved entries appear below for comparison.
c1ccc(-c2n[nH]cc2-c2ccnc3ccccc23)nc1 : 92.2
CC(=O)c1ccc(N2CCOCC2)cc1O : 91.8
O=S(=O)(c1cccc2cnccc12)N1CCCNCC1 : 89.6

Now consider a different compound.
Lookup result for "Nc1ncnc2c1c(-c1ccc(Oc3ccccc3)cc1)cn2C1CCCC1" ; measured residual activity: 90.8
